The entries below pair compounds with pIC50 values for BTK (Homo sapiens, UniProt Q06187), as found in several publications.
pIC50: −log10 of the molar value.
TEST READOUT: pIC50

Record excerpt, results attached:
COc1cc2nc(-c3ccc(Cl)cc3)cc(OCCCN3CCN(C)CC3)c2cc1OC : 5.80
COc1cc2nc(-c3ccc(C)cc3)cc(OCCCN3CCN(C)CC3)c2cc1OC : 5.56
C=CC(=O)Nc1cccc(Oc2nc(Nc3ccc(N4CCN(C)CC4)cc3)nc3ccoc23)c1 : 8.71
COc1cc2nc(-c3ccc(C(F)(F)F)cc3)cc(OCCCNCC3CCCO3)c2cc1OC (centres unmarked) : 5.14
C=CC(=O)N[C@@H](C)C(=O)Nc1cccc(Nc2ncc(NC(=O)c3cc(NC(=O)c4cccc(C(F)(F)F)c4)ccc3C)cn2)c1 : 7.36

a. C=CC(=O)Nc1cc(-n2c(=O)ccc3cnc4cc(-c5ccc(NS(C)(=O)=O)cc5)ccc4c32)ccc1C
b. COc1cc2nc(-c3ccc(Cl)cc3)cc(OCCCNC3CCCCC3)c2cc1OC
c. COc1cc2nc(-c3ccc(C(F)(F)F)cc3)cc(OCCCn3ccnc3)c2cc1OC
**Q:** Arrange these compounds by their pIC50, starting with the largest number. Answer by naming the labels in the order asked.
**A:** a, c, b

a. C=CC(=O)N1CCC[C@H]1C(=O)Nc1cccc(Nc2ncc(NC(=O)c3cc(NC(=O)c4cccc(C(F)(F)F)c4)ccc3C)cn2)c1
b. COc1cc2nc(-c3ccc(Cl)cc3)cc(OCCCn3ccnc3)c2cc1OC
**Q:** Between item a and item b , which reported pIC50 is smaller? Let me know the label of the one you choose.
**A:** b

I. C=CC(=O)N1CCCC(n2nc(-c3c(C)cc(Oc4ccccc4)cc3C)c3c(N)ncnc32)C1 (stereo in doubt)
II. C=CC(=O)Nc1cccc(-n2c(=O)ccc3cnc4cc(N5CCN(S(C)(=O)=O)CC5)ccc4c32)c1
III. COc1cc2nc(-c3ccc(C)cc3)cc(OCCCNCC3CCCO3)c2cc1OC (centres unmarked)
IV. COc1cc2nc(-c3ccc(C(F)(F)F)cc3)cc(OCCCN3CCN(C)CC3)c2cc1OC
**Q:** Arrange items by their pIC50 values in increasing order. Answer by listing the labels in the order asked for.
**A:** IV, III, II, I
